Each recorded value in this set is attributed to patent US20220281965A1.

# subject of test: T1, mature human GDF-15 (human, UniProt Q99988 197-308)
# T1 construct: Homodimer; also called hGDF-15; recombinant hu-GDF15
# T1 sequence: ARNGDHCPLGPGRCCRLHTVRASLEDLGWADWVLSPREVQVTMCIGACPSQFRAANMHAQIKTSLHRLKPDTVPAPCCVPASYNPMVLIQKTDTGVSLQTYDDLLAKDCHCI
# assay remarks: HTRF epitope competition; competitor DyLight 650 labelled Antibody A; Europium labelled human GDF-15
measurement type: IC50 (nM)
Give just the numeric value; nM need not be written.

Solved entries:
AB1170074 (antibody, V domains shown) VH: EVQLQQSGRELVKPGASVKMSCKASGYTFTNYVMHWVKQKPGQGLEWIGYINPHNDGTEYSEKFKGKATLTSDKSSSTAYMELSSLTSEDSAVYYCARWYYDGGYFAYWGQGTLVTVSA VL: DIVMTQSPATLSVTPGDRVSLSCRASQSISDYLHWYQQKSHESPRLLIKYASQSISGIPSRFSGSGSGSDFTLSINSVEPEDVGVYYCQNGHSFPLTFGAGTKLELK ... 1.37
AB1170070 (antibody, V domains shown) VH: EVQLQQSGPELVKPGASVKIPCKASGYTFTDYNMDWVKQSHGKSLEWIGDINPYNGITIYNQKFKGKATLTVDKSSSTAYMELRSLTSEDTAVYYCAREEKLGTSFDYWGQGTTLTVSS VL: DIQMTQSPASLSASVGETVTITCRASENIYSNLAWYQQKQGKSPQLLVYAATNLADGVPSRFSGSGSGTQFSLKINSLQPEDFGSYYCQHFYGTPWTFGGGTKLEIK ... 6.83

For AB1170073 (antibody, V domains shown) VH: QVTLKESGPGILQPSQTLSLTCSFSGFSLSTFGMGVGWIRQPSGKGLEWLAHIWWDDDKYYNPALKSRLTISKDTSKNQVFLKIANVDTADTATYYCARIAYDGYLDYWGQGTTLTVSS VL: DIVMTQSQKFMSTSVGDRVSVTCKASQNVGTDVAWYQQKPGQSPKSLIYSASYRYSGVPDRFTGSGSGTDFTLTISNVQSEDLAEYFCQQYNSYPYTFGGGTKLEIK the binder record lists IC50 as 2.11
